System: TNF-α
ASSAY EXPLANATION: LPS-stimulated human monocyte-derived macrophage TNF-α inhibition assay
Assay type: cell-based
CONDITION CONTEXT: monocyte-derived macrophages from human peripheral blood, LPS-stimulated, 18 hours of culture, dose response 100 μM-0.1 μM, read-out: IC50 for inhibiting TNF-α levels
Counter-ions that a name gives are not always drawn.
EXPERIMENTAL ENDPOINT: IC50 (µM)
Give just the number in µM; leave the unit off.

Challenge: What value of IC50 has been reported for the following molecule? Nc1ncnc2c1ncn2[C@H]1CC[C@H]2[C@@H]1CC[C@H]2O (racemic) [Dihydrochloride]
Response given: 0.143
